tested-target: T1, human GPC3 on cells (human, UniProt P51654 25-563)
T1 construct: whole, on cells; One molecule is used for both CHO-hGPC3 transfectants and GPC3+ HepG2 cells; The assay field names the cell; also called CHO-hGPC3 (clone 2B10); CHO-human GPC3
test-protocol: flow cytometry, CHO-human GPC3 cells
Property: pEC50; scope: individual binders
In textbook form, pEC50 equals minus log to base ten of the concentration in mol/L.

Query 28G4 (antibody, V domains shown, Chimeric human IgG1) VH: EVQLQQSGAELVRPGASVKLSCKALGYTFADYEIHWVKQTPVHGLEWIGAIHPGSGGTAYNQTFKGKATLTADKSSTTAYMELSSLTSEDSAVYYCTRYYSFAYWGQGTLVTVSA VL: DVLMTQTPLSLPVSLGDQASISCRSSQSIVHSNGNTYLQWYLQKPGQSPKLLIYKVSNRFSGVPDRFSGSGSGTDFTLKISRVEAEDLGVYYCFQGSHVPYTFGGGTKLEIK yields pEC50 of 8.54

# evaluate next
// sample 38D2 (antibody, V domains shown, Chimeric human IgG1) VH: QVQLQQSGAELVRPGASVKLSCKALGYTFADYEIHWVKQTPVHGLEWIGAIHPGSGGTAYNQTFEGKATLTADKSSTTAYMELSSLTSEDSAVYYCTRYYSFAYWGQGTLVTVSA VL: DVVMTQTPLSLPVSLGDQASISCRSSQSLENSNGNTYLNWYLQKPGQSPQLLIYRVSNRFSGVLDRFSGSGSGTDFTLKISRVEAEDLGVYFCLQVTHVPYTFGGGTKLEIK , its pEC50 was 8.47

The measurements presented in this section are drawn from patent US20240043568A1.
